Measured cell viability accompanies every entry in the list below.
# Test system: myeloid leukemia patient primary cells Pat.14
# test.details: cell viability (% survival relative to DMSO control); higher = less cytotoxic
# setup.conditions: 10 nM; 72 h
Please give a number only; it is taken to be in %.

Example entries begin here.
* CCN(CC)C(=S)SSC(=S)N(CC)CC [Disulfiram] | 93.9
* CC(=O)Nc1nc(C)c(-c2ccc(Cl)c(S(=O)(=O)NCCO)c2)s1 [PIK93] | 2.07
* Cn1cc(-c2ccncc2)c(-c2ccc(OCc3ccc4ccccc4n3)cc2)n1 | 86.8
* O=C(/C=C/c1ccc(O)c(O)c1)OCCc1ccccc1 [Caffeic acid phenethyl ester] | 83.5

Now, please, on to the next compound.
Respond only with cell viability recorded for C[C@]12C=CC(=O)C=C1CC[C@@H]1[C@@H]2[C@@H](O)C[C@@]2(C)[C@H]1CC[C@]2(O)C(=O)CO [Prednisolone]
46.4

====

Measured cell viability accompanies every entry in the list below.
# System: KG-1
# test.details: cell viability (% survival relative to DMSO control, bortezomib = 0%); higher = less cytotoxic
# setup.conditions: 1 nM; 72 h
Please give a number only; it is taken to be in %.

Example entries begin here.
• CC(C)(C)c1ccc(S(=O)(=O)NCc2ccc(C(=O)Nc3cccnc3)cc2)cc1 [STF-31] = 147
• CN(CCOc1ccc(Cc2sc(O)nc2O)cc1)c1ccccn1 [Rosiglitazone] = 91.4
• CCc1oc2ccccc2c1C(=O)c1cc(Br)c(O)c(Br)c1 [Benzbromarone] = 95.7

Respond only with cell viability recorded for O=c1c(-c2ccc(O)cc2)coc2cc(O[C@@H]3O[C@H](CO)[C@@H](O)[C@H](O)[C@H]3O)ccc12 [Daidzin]
99

Respond only with cell viability recorded for COC(=O)c1cc2c(C(F)(F)F)cc(-c3ccccc3)cc2n1O [NHI-2]
97.6

====

# System: BV-173
# test.details: cell viability (% survival relative to DMSO control, bortezomib = 0%); higher = less cytotoxic
# setup.conditions: 100 nM; 72 h
Decide using cell viability alone. Strictly below 90%: 1. Equal to or above 90%: 0.

* O=C(Nc1ccccc1)c1cc([N+](=O)[O-])ccc1Cl | 0
* N#Cc1ccc(N(Cc2ccc(Br)cc2)n2cnnc2)cc1 | 0
* CCc1c(C(=O)C(N)=O)c2c(OCC(=O)O)cccc2n1Cc1ccccc1 | 1

Now consider the entry below.
Quick check: does OC[C@H]1NC[C@H](O)[C@@H](O)[C@@H]1O have cell viability under 90%?
0

====

# Test system: myeloid leukemia patient primary cells Pat.15
# test.details: cell viability (% survival relative to DMSO control); higher = less cytotoxic
# setup.conditions: 1 nM; 72 h
Measured cell viability accompanies every entry in the list below.
Please give a number only; it is taken to be in %.

- O=C(/C=C/c1ccc(O)c(O)c1)OCCc1ccccc1: 96.5
- O=c1cc(N2CCOCC2)oc2c(-c3ccccc3)cccc12: 77.5
- Cc1c2c(=O)n(-c3ccccc3Cl)[nH]c2cc(=O)n1Cc1ccccn1: 77.3
- CO[C@H]1C[C@@H]2CC[C@@H](C)[C@@](O)(O2)C(=O)C(=O)N2CCCC[C@H]2C(=O)O[C@H]([C@H](C)C[C@@H]2CC[C@@H](OC(=O)C(C)(CO)CO)[C@H](OC)C2)CC(=O)[C@H](C)/C=C(\C)[C@@H](O)[C@@H](OC)C(=O)[C@H](C)C[C@H](C)/C=C/C=C/C=C/1C: 69.7
- Cc1cc2c(C(C)C)c(O)c(O)c(C=O)c2c(O)c1-c1c(C)cc2c(C(C)C)c(O)c(O)c(C=O)c2c1O: 98.2

Respond only with cell viability recorded for CN(Cc1cnc2nc(N)nc(N)c2n1)c1ccc(C(=O)N[C@@H](CCC(=O)O)C(=O)O)cc1 [Methotrexate]
95.4

Respond only with cell viability recorded for C=CCN(C)CCCCCCOc1ccc(C(=O)c2ccc(Br)cc2)c(F)c1.O=C(O)/C=C/C(=O)O [Ro 48-8071 fumarate]
84

Respond only with cell viability recorded for O=C(O)CC[N+](=O)[O-]
92.7

====

# Test system: myeloid leukemia patient primary cells Pat.2
# test.details: area under dose-response curve (viability, 1 nM-10 uM) (fraction (0-1)); higher = more sensitive
# setup.conditions: 72 h
assay.endpoint: area under dose-response curve
Could you keep your reply to the number by itself?

Example entries begin here.
* CCN(CC)C(=S)SSC(=S)N(CC)CC [Disulfiram] | 0.512
* Cc1cc2c(C(C)C)c(O)c(O)c(C=O)c2c(O)c1-c1c(C)cc2c(C(C)C)c(O)c(O)c(C=O)c2c1O [Gossypol] | 0.112
* O=C1C(SCCO)=C(SCCO)C(=O)c2ccccc21 | 0.234
* C=CCN(C)CCCCCCOc1ccc(C(=O)c2ccc(Br)cc2)c(F)c1.O=C(O)/C=C/C(=O)O [Ro 48-8071 fumarate] | 0.0431

Now, please, on to the next molecule.
Respond only with area under dose-response curve recorded for CO[C@H]1C[C@@H]2CC[C@@H](C)[C@@](O)(O2)C(=O)C(=O)N2CCCC[C@H]2C(=O)O[C@H]([C@H](C)C[C@@H]2CC[C@@H](OCCO)[C@H](OC)C2)CC(=O)[C@H](C)/C=C(\C)[C@@H](O)[C@@H](OC)C(=O)[C@H](C)C[C@H](C)/C=C/C=C/C=C/1C [Everolimus]
0.0353

====

# System: myeloid leukemia patient primary cells Pat.6
# test.details: cell viability (% survival relative to DMSO control); higher = less cytotoxic
# setup.conditions: 10000 nM; 72 h
assay.endpoint: cell viability (%)
Please give a number only; it is taken to be in %.

Example entries begin here.
• CN(CCOc1ccc(Cc2sc(O)nc2O)cc1)c1ccccn1 [Rosiglitazone] = 77.9
• O=C(O)CC[N+](=O)[O-] [3-nitropropionic acid] = 90
• Cc1cc2c(C(C)C)c(O)c(O)c(C=O)c2c(O)c1-c1c(C)cc2c(C(C)C)c(O)c(O)c(C=O)c2c1O [Gossypol] = 20.9

Now, please, on to the next compound.
Respond only with cell viability recorded for C[C@]12C=CC(=O)C=C1CC[C@@H]1[C@@H]2[C@@H](O)C[C@@]2(C)[C@H]1CC[C@]2(O)C(=O)CO [Prednisolone]
66.2

====

# Tested on: MOLM-13
# test.details: cell viability (% survival relative to DMSO control, bortezomib = 0%); higher = less cytotoxic
# setup.conditions: 100 nM; 72 h
Decide using cell viability alone. Strictly below 90%: yes. Equal to or above 90%: no.

Known results for compounds:
• O=c1cc(N2CCOCC2)oc2c(-c3ccccc3)cccc12 = yes
• C[C@H]1c2cccc(O)c2C(=O)C2C(=O)[C@]3(O)C(=O)C(C(N)=O)C(=O)[C@@H](N(C)C)[C@@H]3[C@@H](O)[C@@H]21 (some centres not stated) = no
• Cc1cccc(Nc2cc(Cl)nc(SCC(=O)O)n2)c1C = yes

Quick check: does O=C(O)CC[N+](=O)[O-] have cell viability under 90%?
no

====

# Tested on: HL-60
# test.details: cell viability (% survival relative to DMSO control); higher = less cytotoxic
# setup.conditions: 1 µM; 72 h; co-treatment: pictilisib 100 nM
assay.endpoint: cell viability (%)
Please give a number only; it is taken to be in %.

* O=C(NCCN1CCC(n2c(O)nc3ccccc32)CC1)c1cc2cc(F)ccc2[nH]1 | 110
* CC[C@H](C)[C@H](N)C(=O)N1CCSC1 | 105
* Cc1c(Cl)cccc1S(=O)(=O)Nc1nc(CC(=O)N2CCN(C)CC2)cs1 | 87.2
* CO[C@H]1C[C@@H]2CC[C@@H](C)[C@@](O)(O2)C(=O)C(=O)N2CCCC[C@H]2C(=O)O[C@H]([C@H](C)C[C@@H]2CC[C@@H](OC(=O)C(C)(CO)CO)[C@H](OC)C2)CC(=O)[C@H](C)/C=C(\C)[C@@H](O)[C@@H](OC)C(=O)[C@H](C)C[C@H](C)/C=C/C=C/C=C/1C | 81
* COC(=O)c1cc2c(C(F)(F)F)cc(-c3ccccc3)cc2n1O | 99.3
* CO[C@H]1C[C@@H]2CC[C@@H](C)[C@@](O)(O2)C(=O)C(=O)N2CCCC[C@H]2C(=O)O[C@H]([C@H](C)C[C@@H]2CC[C@@H](OCCO)[C@H](OC)C2)CC(=O)[C@H](C)/C=C(\C)[C@@H](O)[C@@H](OC)C(=O)[C@H](C)C[C@H](C)/C=C/C=C/C=C/1C | 89.2
* Cc1cc(C(=O)NNCc2ccccc2)no1 | 103
* CCn1c(=Cc2cccc[n+]2CC)sc(=C2Sc3ccccc3N2C)c1=O | 93.3

Respond only with cell viability recorded for CC(C)(C)c1ccc(S(=O)(=O)NCc2ccc(C(=O)Nc3cccnc3)cc2)cc1
18

Respond only with cell viability recorded for Cc1nc(-c2ccccc2)sc1C(=O)Nc1ccc(S(N)(=O)=O)cc1
97.9

Respond only with cell viability recorded for CC/C=C\C[C@H]1C(=O)CC[C@@H]1CC(=O)OC [methyl jasmonate]
109

Respond only with cell viability recorded for N[C@@H](CC(=O)N1CCn2c(nnc2C(F)(F)F)C1)Cc1cc(F)c(F)cc1F
114

Respond only with cell viability recorded for CCc1c(C(=O)C(N)=O)c2c(OCC(=O)O)cccc2n1Cc1ccccc1
97.7
